Catalogue of IC50 values
target: Serine/threonine-protein kinase B-raf (Homo sapiens, UniProt P15056, V600E); test: Inhibition of B-Raf V600E mutant in human Malme-3M cells assessed as basal ERK phosphorylation; assay type: cell-based
Sequence (P15056 2-766 V600E limits assumed): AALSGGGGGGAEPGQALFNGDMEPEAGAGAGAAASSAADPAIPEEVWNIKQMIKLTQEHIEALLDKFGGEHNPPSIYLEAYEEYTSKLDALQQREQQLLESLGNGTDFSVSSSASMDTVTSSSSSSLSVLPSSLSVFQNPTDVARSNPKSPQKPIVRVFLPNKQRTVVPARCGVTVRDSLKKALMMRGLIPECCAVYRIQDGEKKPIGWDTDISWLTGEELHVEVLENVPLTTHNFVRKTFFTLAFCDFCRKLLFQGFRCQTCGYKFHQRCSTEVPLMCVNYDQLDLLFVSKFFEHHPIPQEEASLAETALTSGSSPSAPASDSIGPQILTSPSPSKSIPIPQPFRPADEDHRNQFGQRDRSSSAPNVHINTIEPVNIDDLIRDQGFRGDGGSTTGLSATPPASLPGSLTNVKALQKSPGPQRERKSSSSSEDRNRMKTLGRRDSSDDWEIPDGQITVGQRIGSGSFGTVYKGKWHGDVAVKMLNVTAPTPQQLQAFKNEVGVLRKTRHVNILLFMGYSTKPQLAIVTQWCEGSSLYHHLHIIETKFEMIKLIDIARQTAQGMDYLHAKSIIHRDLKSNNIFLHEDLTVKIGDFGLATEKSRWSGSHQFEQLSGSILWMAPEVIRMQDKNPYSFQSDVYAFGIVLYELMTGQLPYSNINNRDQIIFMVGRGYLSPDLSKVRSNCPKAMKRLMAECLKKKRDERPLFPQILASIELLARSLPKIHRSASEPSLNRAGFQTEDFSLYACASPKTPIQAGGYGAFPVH
Write the number in nM without appending the unit.

Measured IC50 of CCCS(=O)(=O)Nc1ccc(F)c(C(=O)Nc2cnc3[nH]c(C)nc3c2)c1F : 1710

Measured IC50 of CCCS(=O)(=O)Nc1ccc(F)c(C(=O)Nc2cnc3[nH]c(-c4ccc(OC)cc4)nc3c2)c1F : 137

====

test system: Serine/threonine-protein kinase B-raf (Homo sapiens), P15056 [V600E]; assay: Ratio of IC50 for B-Raf V600E mutant in human Malme-3M cells to IC50 for full length B-Raf V600E mutant (unknown origin); format: cell-based
Sequence (P15056 whole entry V600E): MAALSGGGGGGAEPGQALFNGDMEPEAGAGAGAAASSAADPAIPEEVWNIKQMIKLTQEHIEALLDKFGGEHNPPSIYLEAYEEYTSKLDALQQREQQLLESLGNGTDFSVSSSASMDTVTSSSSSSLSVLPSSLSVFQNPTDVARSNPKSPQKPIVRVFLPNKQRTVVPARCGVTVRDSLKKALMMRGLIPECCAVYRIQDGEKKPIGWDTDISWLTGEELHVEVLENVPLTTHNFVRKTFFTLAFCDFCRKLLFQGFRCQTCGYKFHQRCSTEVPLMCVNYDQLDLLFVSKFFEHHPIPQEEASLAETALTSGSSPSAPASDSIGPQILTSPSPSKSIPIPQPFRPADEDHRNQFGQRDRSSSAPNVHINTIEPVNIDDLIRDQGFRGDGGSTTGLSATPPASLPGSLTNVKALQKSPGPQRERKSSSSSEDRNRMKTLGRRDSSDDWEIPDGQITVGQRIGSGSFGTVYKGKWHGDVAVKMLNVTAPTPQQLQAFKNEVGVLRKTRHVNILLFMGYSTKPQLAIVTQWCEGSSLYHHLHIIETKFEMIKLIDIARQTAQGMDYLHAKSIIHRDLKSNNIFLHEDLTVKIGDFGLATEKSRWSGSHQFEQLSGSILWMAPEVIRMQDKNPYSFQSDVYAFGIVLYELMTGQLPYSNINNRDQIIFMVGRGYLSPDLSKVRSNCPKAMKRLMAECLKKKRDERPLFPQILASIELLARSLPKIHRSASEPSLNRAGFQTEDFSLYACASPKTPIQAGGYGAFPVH
Catalogue of Ratio IC50 values
Quick one: just the number, no unit, thanks!

Below are worked cases with known answers.
Measured Ratio IC50 of CCCS(=O)(=O)Nc1ccc(F)c(C(=O)Nc2cnc3[nH]c(-c4ccncc4)nc3c2)c1F : 596

Measured Ratio IC50 of CCCS(=O)(=O)Nc1ccc(F)c(C(=O)Nc2cnc3[nH]c(C(C)(C)C)nc3c2)c1F : 23

Measured Ratio IC50 of CCCS(=O)(=O)Nc1ccc(F)c(C(=O)Nc2cnc3[nH]c(-c4cccc(C(F)(F)F)c4)nc3c2)c1F : 112

From here, focus on the item given below.
Measured Ratio IC50 of CCCS(=O)(=O)Nc1ccc(F)c(C(=O)Nc2cnc3[nH]c(-c4cccc(F)c4)nc3c2)c1F : 97
